target_desc: T1, FcRn-p3 fusion protein (human, UniProt P55899 24-297; P61769 21-119)
T1 construct: baculovirus expressed; coated on ELISA wells; not shown: amino terminal part of bacteriophage p3 protein and CVDE protein
test_protocol: phage ELISA pH6
quantity_name: Ratio/Fc-H (fold)
Give the quantity in fold, number only.

Challenge: // returns reported Ratio/Fc-H for input T5A_25 (other, EU numbering) GPPCPAPELLGGPSVFLFPPKPKDTLMISRTPEVTCVVEDVSHEDPEVKFNWYVDGVEVHNAKTKPREEQYNSTYRVVSVLTVLHQDWLNGKEYKCKVSNKALPAPIEKTISKAKGQPREPRVYTLPPSRDELTKNQVSLTCLVRGFYPSDIVVEWESNGQPENNYKTTPPVLDSDGSFFLYSKLTVDKSRWQQGNVFSCSVMHEALHSHYTQKSLSLSPGK
Response given: 4.6

Challenge: Item C6A_04 (other, EU numbering) CPPCPAPELLGGPSVFLFPPKPKDTLMISRTPEVTCVVVDVSHEDPEVKFNWYVDGVEVHNAKTKPREEQYNSTYRVVSVLTVLHQDWLNGKEYKCKVSNKALPAPIEKTISKAKGRPREPQVYTLPPSRDELTKNQVSLTCLVKGFYPSDIAVEWVSNGQPENNYKTTPPVLDSDGSFFLYSKLTVDKSRWQQGNVFSCSVMHEALHYHYTQKSLSLSPGK has what recorded Ratio/Fc-H?
Response given: 2.9

Challenge: Entry C5A_63 (other, EU numbering) CPPCPAPELLGGPSVFLFPPKPKDTLMISRTPEVTCVVVDVSHEDPEVKFNWYVDGVEVHNAKTKPREEQYNNTYRVVSVLTVLHQDWLDGKEYKCKVSNKALPVPIEKTISKAKGQPREPQVYTLPPSRDELTKNQVSLTCLVKGFYPSDIAVEWESNGQPENNYKTTPPVLDSDGSFFLYSKLTVDKSRWQQGNVFSCSVMHEALHYHYTQKSLSLSPGK : reported Ratio/Fc-H = ?
Response given: 2

Challenge: I would be grateful if you could share the reported Ratio/Fc-H for T7A_46 (other, EU numbering) CPPCPAPELLGGPSVFLFPPKPKDTLMISRTPEVTCVVEDVSHEDPEVKFNWYVDGVEVHNAKTKPREEQYNSTYRVVSVLTVLHQDWLNGKEYKCKVSNKALPAPIEKTISKAKGQPREPQVYTLPPSRDELTKNQVSLTCLVKGFYPSDIVVEWESNRQPENNYKTTPPVLDSDGSFFLYSKLTVDKSRWQQGNVFSCSVMHEALHSHYTQKSLSLSPGK .
Response given: 2.6

Challenge: Given the entry T4A_43 (other, EU numbering) CPPCPAPELLGGPSVFLFPPKPKDTLMISRTPEVTCVVVDVSHEDPEVKFNWYVDGVEVHNAKTKPREEQYNSTYRVVSVLTVLHQDWLNGKEYKCKVSNKALPAPVEKTISKAKGQPREPQVYTLPPSRDELTKNQVSLTCLVRGFYPSDIVVEWESNGQPENNYKTTPPVLDSDGSFFLYSKLTVDKSRWQQGNVFSCSVMHEALHSHYTQKSLSLSPGK , report its measured Ratio/Fc-H.
Response given: 2

Values were extracted from patent USRE46585.
